Assay: chemical genetic growth profiling, strain panel (AID 1159580);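 also: tested at 20 µM; growth read once vehicle control cultures reached saturation at 30 °C; 1 = growth at the plate median or of vehicle wells; lower values mean less growth of the strain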
Details: S. cerevisiae deletion strains, growth OD, locus YOR231W, strain MKK1, active compounds read low
Screen size: about 5,500 compounds; about 2,000 (36%) were called active. Inconclusive results (about 18%) are left out. The list shows a part of the results.
Note to self: normalized growth under 1 means 1, ties and anything higher get 0.

Some solved cases for reference:
compound: COc1c(CC(=O)c2cc3c(cc2O)OC(C)(C)C(O)C3)ccc2c1C=CC(C)(C)O2 (configuration not stated)
group_label: 1

compound: C[C@@H]1CC[C@H]2[C@@H](C)C(=O)O[C@@H]3O[C@@]4(C)CC[C@@H]1[C@]32OO4
group_label: 1

compound: O=C(N/N=C\c1cc(Br)ccc1O)c1ccccc1Oc1ccccc1
group_label: 1

compound: OC(CCN1CCCC1)(c1ccccc1)C1CCCCC1 (configuration not stated)
group_label: 1

compound: CC(=O)Nc1ccc(OCC(O)CNC(C)C)cc1 (configuration not stated)
group_label: 1

compound: CCOC(=O)c1cc(CC)sc1NC(=O)c1ccc([N+](=O)[O-])o1
group_label: 1

QUERY: State whether 1 exceeds normalized growth recorded for Nc1ccccc1C(=O)CC(N)C(=O)O (configuration not stated) .
RESULT: 0

QUERY: State whether 1 exceeds normalized growth recorded for Cc1ccc(C)c(CSc2nc(C3CCCCC3)c(C#N)c(=O)[nH]2)c1 .
RESULT: 0

----------
Experiment: chemical genetic growth profiling, strain panel (AID 1159580);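 also: tested at 20 µM; growth read once vehicle control cultures reached saturation at 30 °C; 1 = growth at the plate median or of vehicle wells; lower values mean less growth of the strain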
Details: S. cerevisiae deletion strains, growth OD, locus YHR094C, strain hxt1, active compounds read low
Out of some 5,500 compounds screened, about 2,000 (36%) were called active. Inconclusive results (about 18%) are left out. The list shows a part of the results.
Task for the reader: assign each of the following molecules its reported normalized growth.
Answers are plain numbers.

Below are worked cases with known answers.
molecule: CC(=O)Nc1ccc(OCC(O)CNC(C)C)cc1 (stereo not drawn)
normalized growth: 0.999
//
molecule: CCC(C)C(NC)C(=O)O (stereo not drawn)
normalized growth: 0.977
//
molecule: COc1ccc2c(c1)c(CC(=O)O)c(C)n2C(=O)c1ccc(Cl)cc1
normalized growth: 0.975
//
molecule: CC(C)=CCCC1(C)C=Cc2c(O)c3c(c(CC=C(C)C)c2O1)OC12C(CC4CC1C(C)(C)OC2(C/C=C(/C)C(=O)O)C4O)C3=O (stereo not drawn)
normalized growth: 1
//
molecule: Cc1cc(C(C)(C)C)c(O)c(C(C)(C)C)c1
normalized growth: 1

// batch mode: one normalized growth value per listed entry
1. Cc1cc(O)cc(=O)o1
2. O=c1cc(CO)occ1O
3. Cc1cc(O)cc(O)c1C(=O)O
4. Fc1ccc(C(c2ccccc2)(c2ccccc2F)n2ccnc2)cc1 (stereo not drawn)
5. O=C(O)/C=C1\CCCc2ccccc2C1O (stereo not drawn)
6. CCCOc1ccccc1-c1nc2n[nH]nc2c(=O)[nH]1
7. CC(C)CC(N(C)C)C1(c2ccc(Cl)cc2)CCC1 (stereo not drawn)
8. NNC(=O)c1ccncc1

RESULT:
0.986
1.02
1.01
0.0819
0.984
1.02
1.01
0.989

----------
Test: chemical genetic growth profiling, strain panel (AID 1159580);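 also: tested at 20 µM; growth read once vehicle control cultures reached saturation at 30 °C; 1 = growth at the plate median or of vehicle wells; lower values mean less growth of the strain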
Settings: S. cerevisiae deletion strains, growth OD, locus YHR142W, strain chs7, active compounds read low
The whole screen tested about 5,500 compounds, of which about 2,000 (36%) were called active. Roughly 18% stayed inconclusive and do not appear here. This is one part of the list.
Note to self: normalized growth under 1 means true (1), ties and anything higher get false (0).

molecule: CC1(C)CC[C@]2(C)CC[C@]3(C)C(=CCC4[C@@]5(C)CC[C@H](O)C(C)(C)C5CC[C@]43C)C2C1 (stereo not given in full)
group_label: false (0)

molecule: C#C[C@]1(O)CCC2C3CCC4=CC(=O)CC[C@@H]4C3CC[C@@]21C (stereo not given in full)
group_label: true (1)

molecule: C#C[C@]1(OC(C)=O)CCC2C3CCC4=C/C(=N\O)CCC4C3CC[C@@]21CC (stereo not given in full)
group_label: true (1)

molecule: C[C@@H]1CC[C@]2(C(=O)O)CC[C@]3(C)C(=CCC4[C@@]5(C)CC[C@H](O)C(C)(C)C5CC[C@]43C)C2[C@H]1C (stereo not given in full)
group_label: false (0)

molecule: CC1(C)CC[C@@]2(C(=O)O)C(C1)C1=CCC3[C@@]4(C)CC[C@H](O)C(C)(C)C4CC[C@@]3(C)[C@]1(C)C[C@@H]2O (stereo not given in full)
group_label: false (0)

QUERY: State whether 1 exceeds normalized growth recorded for CCC(C)C(=O)O[C@H]1[C@H](O)C2C(CN3CC(C)CCC3[C@@]2(C)O)C2C[C@]34O[C@]5(O)C(OC(=O)C(C)(O)CC)CC[C@@]3(C)C5C(OC(C)=O)[C@@H](OC(C)=O)C4[C@@]21O (stereo not given in full) .
RESULT: false (0)

Hello, the source for this data is PubChem BioAssay AID1159580, in case you need it.
